Test system: H3N8 A/Miami/2/63
experimentalSetup: A/Miami/2/63, 48 h, 500 μM
Bridge positions count the residues as written; N and C are the ends. Square brackets hold non-standard residues; d marks the D form. Peptide text beside a SMILES is read from it.
quantityKind: % inhibition H3N8 (%)
Report the value in % with no unit label.

compound	systemName	% inhibition H3N8 / %
CC[C@@H](C)[C@H]1NC(=O)[C@@H](Cc2ccccc2)NC(=O)[C@@H](CCCNC(=N)N)NC(=O)[C@@H](CO)NC(=O)[C@@H](CCCNC(=N)N)NC(=O)[C@@H]([C@H](C)O)NC(=O)[C@H](NC(=O)[C@@H](CCCCN)NC(=O)[C@@H](CCCCN)NC(=O)[C@@H](CCCNC(=N)N)NC(=O)[C@H](N)CCCNC(=N)N)CSSC[C@H](C(=O)O)NC(=O)[C@@H](CC(N)=O)NC1=O [PSP II A15, H-rrkkctrsrfinc-OH] (H-[dR][dR][dK][dK][dC][dT][dR][dS][dR][dF][dI][dN][dC]-OH; disulfide 5-13)	H3N8 A/Miami/2/63	79.4

In the following, a different compound is considered.
For the compound shown here, CC[C@@H](C)[C@H]1NC(=O)[C@@H](Cc2ccccc2)NC(=O)[C@@H](CCCNC(=N)N)NC(=O)[C@@H](CO)NC(=O)[C@@H](CS)NC(=O)[C@@H]([C@H](C)O)NC(=O)[C@H](NC(=O)[C@@H](CCCCN)NC(=O)[C@@H](CCCCN)NC(=O)[C@@H](CCCNC(=N)N)NC(=O)[C@H](N)CCCNC(=N)N)CSSC[C@H](C(=O)O)NC(=O)[C@@H](CC(N)=O)NC1=O [PSP II A2, H-rrkkctcsrfinc-OH] (H-[dR][dR][dK][dK][dC][dT][dC][dS][dR][dF][dI][dN][dC]-OH; disulfide 5-13) , give the reported % inhibition H3N8.
44.4
